Experiment: Conductance measurements in water
Format: physicochemical

ENTRY SMILES | pKa
CC(=O)c1ccc(O)c(C(=O)O)c1 | 3.04
